Tested on: lipase of SEQ ID NO: 2
Experiment: Substrate specificity with triacylglycerols
Assay type: biochemical, Thermoanaerobacter thermohydrosulfuricus
Conditions: triacylglycerol 10 mM, pH 8.0, 25 h at 70° C.
Procedure: The lipase of SEQ ID NO: 2 was tested by reaction with various triacylglycerols 10 mM (pH 8.0) as substrates: for 25 h at 70° C. Similar results were obtained with the lipase of SEQ ID NO: 4.
# Relative activity >= 10 gives 1, anything below gives 0

> print(dat)
                               entry.smiles  group
1  CCCCCCCCCCCC(=O)OCC(COC(=O)CCCCCCCCCCC)OC(=O)CCCCCCCCCCC      1
2    CCCCCC(=O)OCC(COC(=O)CCCCC)OC(=O)CCCCC      1
3  CCCCCCCCCC(=O)OCC(COC(=O)CCCCCCCCC)OC(=O)CCCCCCCCC      1
4                CC(=O)OCC(COC(C)=O)OC(C)=O      0
5  CCCCCCCCCCCCCCCC(=O)OCC(COC(=O)CCCCCCCCCCCCCCC)OC(=O)CCCCCCCCCCCCCCC      1
6  CCCCCCCCCCCCCCCCCC(=O)OCC(COC(=O)CCCCCCCCCCCCCCCCC)OC(=O)CCCCCCCCCCCCCCCCC      0
7  CCCCCCCCCCCCCC(=O)OCC(COC(=O)CCCCCCCCCCCCC)OC(=O)CCCCCCCCCCCCC      0
8  CCCCCCCC(=O)OCC(COC(=O)CCCCCCC)OC(=O)CCCCCCC      1

====

Test system: lipase from T. thermohydrosulfuricum (SEQ ID NO: 2)
Test: Alcoholysis of triacylglycerols (positional specificity towards triglycerides)
Assay type: biochemical, Thermoanaerobacter thermohydrosulfuricus
Details: alcoholysis with ethanol in acetone, 7 h at 65° C.
MEASUREMENT LABEL: DG 1,3- (%)

> print(dat)
                                   compound  measurement.label  numeric.result
1  CCCCCCCCCCCCCCCCCC(=O)OCC(COC(=O)CCCCCCCCCCCCCCCCC)OC(=O)CCCCCCCCCCCCCCCCC [Tristearin, Tristearin (C18:0)]            DG 1,3-              48
2  CCCCCCCCCCCCCC(=O)OCC(COC(=O)CCCCCCCCCCCCC)OC(=O)CCCCCCCCCCCCC [Trimyristin, Trimyristin (C14:0)]            DG 1,3-              12
3  CCCCCCCCCCCC(=O)OCC(COC(=O)CCCCCCCCCCC)OC(=O)CCCCCCCCCCC [Trilaurin, Trilaurin (C12:0)]            DG 1,3-              12
4  CCCCCCCCCCCCCCCC(=O)OCC(COC(=O)CCCCCCCCCCCCCCC)OC(=O)CCCCCCCCCCCCCCC [Tripalmitin, Tripalmitin (C16:0)]            DG 1,3-              13

====

Tested on: lipase from T. thermohydrosulfuricum (SEQ ID NO: 2)
Assay: Alcoholysis of triacylglycerols (positional specificity towards triglycerides)
Format: biochemical, Thermoanaerobacter thermohydrosulfuricus
Conditions: alcoholysis with ethanol in acetone, 7 h at 65° C.
Experimental: Alcoholysis of various triacylglycerols catalyzed by the lipase of SEQ ID NO: 2 were tested. All substrates were alcoholyzed by the lipase. […] For other substrates the conversions were above 40%. […] Changes in glycerides composition of the reaction medium during reaction were quantitatively determined by TLC/FID using latroscan analytical methods (latroscan, latron Laboratories, Inc., Tokyo, Japan). […]
Entries and their measured FA (fatty acid) follow.
MEASUREMENT LABEL: FA (fatty acid) (%)

> print(dat)
                               entry.smiles  numeric.result
1  CCCCCCCCCCCCCCCC(=O)OCC(COC(=O)CCCCCCCCCCCCCCC)OC(=O)CCCCCCCCCCCCCCC               3
2  CCCCCCCCCCCCCCCCCC(=O)OCC(COC(=O)CCCCCCCCCCCCCCCCC)OC(=O)CCCCCCCCCCCCCCCCC              10
3  CCCCCCCCCCCCCC(=O)OCC(COC(=O)CCCCCCCCCCCCC)OC(=O)CCCCCCCCCCCCC               1
4  CCCCCCCCCCCC(=O)OCC(COC(=O)CCCCCCCCCCC)OC(=O)CCCCCCCCCCC               2

====

Test system: lipase of SEQ ID NO: 2
Experiment: Substrate specificity for pNP-esters
Format: biochemical, Thermoanaerobacter thermohydrosulfuricus
Conditions: pNP-ester 1 mM, pH 8.0, 10 min at 70° C.
The label is TRUE for Relative activity below 80 and FALSE for Relative activity equal to or exceeding 80.

> print(dat)
                                   compound       system.under.test  group
1  CCCCCCCCCCCC(=O)Oc1ccc([N+](=O)[O-])cc1 [pNP-laurate, pNP-laurate (C12:0)]  lipase of SEQ ID NO: 2  FALSE
2  CCCCCCCCCCCCCC(=O)Oc1ccc([N+](=O)[O-])cc1 [pNP-myristate, pNP-myristate (C14:0)]  lipase of SEQ ID NO: 2   TRUE
3  CCCCCCCCCCCCCCCCCC(=O)Oc1ccc([N+](=O)[O-])cc1 [pNP-stearate, pNP-stearate (C18:0)]  lipase of SEQ ID NO: 2   TRUE
4  CCCCCCCC(=O)Oc1ccc([N+](=O)[O-])cc1 [pNP-caprylate, pNP-caprylate (C8:0)]  lipase of SEQ ID NO: 2  FALSE
5  CCCCCCCCCC(=O)Oc1ccc([N+](=O)[O-])cc1 [pNP-caprate, pNP-caprate (C10:0)]  lipase of SEQ ID NO: 2  FALSE

====

System: lipase from T. thermohydrosulfuricum (SEQ ID NO: 2)
Experiment: Alcoholysis of triacylglycerols (positional specificity towards triglycerides)
Type: biochemical, Thermoanaerobacter thermohydrosulfuricus
Settings: alcoholysis with ethanol in acetone, 7 h at 65° C.
MEASUREMENT LABEL: MG 1- 3- (%)

> print(dat)
                                   compound  numeric.result
1  CCCCCCCCCCCCCC(=O)OCC(COC(=O)CCCCCCCCCCCCC)OC(=O)CCCCCCCCCCCCC [Trimyristin, Trimyristin (C14:0)]              19
2  CCCCCCCCCCCCCCCCCC(=O)OCC(COC(=O)CCCCCCCCCCCCCCCCC)OC(=O)CCCCCCCCCCCCCCCCC [Tristearin, Tristearin (C18:0)]               9
3  CCCCCCCCCCCC(=O)OCC(COC(=O)CCCCCCCCCCC)OC(=O)CCCCCCCCCCC [Trilaurin, Trilaurin (C12:0)]              22
4  CCCCCCCCCCCCCCCC(=O)OCC(COC(=O)CCCCCCCCCCCCCCC)OC(=O)CCCCCCCCCCCCCCC [Tripalmitin, Tripalmitin (C16:0)]              18

====

Tested on: lipase
Assay: Effects of metal ions on lipase activity
Format: biochemical
Details: metal ions up to 10 mM
MEASUREMENT LABEL: lipase activity in the presence of metal ions

> print(dat)
    entry.smiles  system.under.test            result
 1        [Ca+2]             lipase  nearly unchanged
 2        [Cr+3]             lipase         decreased
 3         [Rb+]             lipase  nearly unchanged
 4        [Mn+2]             lipase  nearly unchanged
 5        [Cu+2]             lipase  nearly unchanged
 6        [Al+3]             lipase  nearly unchanged
 7        [Fe+3]             lipase         decreased
 8        [Sr+2]             lipase  nearly unchanged
 9        [Ni+2]             lipase  nearly unchanged
10        [Fe+2]             lipase         decreased
11        [Mg+2]             lipase  nearly unchanged
12         [Ag+]             lipase  nearly unchanged
13        [Co+2]             lipase  nearly unchanged
14        [Zn+2]             lipase         decreased
15         [Na+]             lipase  nearly unchanged
16          [K+]             lipase  nearly unchanged

====

System: lipase from T. thermohydrosulfuricum (SEQ ID NO: 2)
Test: Alcoholysis of triacylglycerols (positional specificity towards triglycerides)
Assay type: biochemical, Thermoanaerobacter thermohydrosulfuricus
Details: alcoholysis with ethanol in acetone, 7 h at 65° C.
Quick reference for TG (remaining substrate) among some compounds
MEASUREMENT LABEL: TG (remaining substrate) (%)

> print(dat)
                               entry.smiles  numeric.result
1  CCCCCCCCCCCCCCCCCC(=O)OCC(COC(=O)CCCCCCCCCCCCCCCCC)OC(=O)CCCCCCCCCCCCCCCCC              33
2  CCCCCCCCCCCCCC(=O)OCC(COC(=O)CCCCCCCCCCCCC)OC(=O)CCCCCCCCCCCCC              66
3  CCCCCCCCCCCC(=O)OCC(COC(=O)CCCCCCCCCCC)OC(=O)CCCCCCCCCCC              58
4  CCCCCCCCCCCCCCCC(=O)OCC(COC(=O)CCCCCCCCCCCCCCC)OC(=O)CCCCCCCCCCCCCCC              65

Values were extracted from patent US7972831B2.
